Test system: HL-60(TB) leukemia
methodSummary: NCI tumour cell line growth inhibition, 48 h; in the data active means GI50 below about 0.43 µM; inactive means the rest
Answer with one of the outcomes given here: yes for active, no for inactive

Q: // outcome(item) with item = O=c1c(-c2ccc(O)cc2)coc2cc(OC3OC(CO)C(O)C(O)C3O)cc(O)c12 (stereo not given)
A: no

Q: // outcome(item) with item = O=C(Nc1cccnc1)c1ccc2ccc3ccc(C(=O)Nc4cccnc4)nc3c2n1
A: yes

Q: // outcome(item) with item = COc1cc(-c2ccc(NC(=O)NC3CC3)c(OC)c2)ccc1NC(=O)NC1CC1
A: no

Q: // outcome(item) with item = O=C(O)Cn1c2c(c3c(O)cccc31)C(=O)c1ccccc1-2
A: no

Q: // outcome(item) with item = O=C(Nc1ccc2c(c1)OCO2)C(=O)c1c[nH]c2cc(F)ccc12
A: no

----------
System: TK-10 renal
methodSummary: NCI tumour cell line growth inhibition, 48 h
measuredEndpoint: TGI

Q: State the recorded TGI for this entry: CCCCCCCCCOC(=S)NCCCCC
A: 56.4 µM

Q: State the recorded TGI for this entry: CC(C)CCC(=O)[C@@H](C)[C@H]1[C@@H](OC2OCC(O)C(O)C2NS(C)(=O)=O)C[C@H]2[C@@H]3CC=C4C[C@@H](O)CC[C@]4(C)[C@H]3CC[C@]12C (stereo partly specified)
A: 23.5 µM

Q: State the recorded TGI for this entry: CC(C)CN(CC#N)CC(C)C
A: > 100 µM

Q: State the recorded TGI for this entry: O=S(=O)(OI(O)CC(F)(F)F)C(F)(F)F
A: > 100 µM

Q: State the recorded TGI for this entry: O=C(Nc1cccnc1)c1ccc2ccc3ccc(C(=O)Nc4cccnc4)nc3c2n1
A: > 100 µM

Q: State the recorded TGI for this entry: O=C1NC(S(=O)(=O)O)=NNC12c1ccccc1-c1ccccc12
A: > 10 µM

Q: State the recorded TGI for this entry: CC(C)(C)NC/C(=C\c1ccccc1)C(=O)c1ccccc1
A: 2.28 µM

Q: State the recorded TGI for this entry: COc1ccccc1NC(=S)Nc1cc(C)ccn1
A: > 100 µM

Q: State the recorded TGI for this entry: O=c1c(-c2ccc(O)cc2)coc2cc(OC3OC(CO)C(O)C(O)C3O)cc(O)c12 (stereo unspecified)
A: > 100 µM

Q: State the recorded TGI for this entry: COC(=O)c1cc(C)n(CN(Cc2ccccc2)Cn2nc(C(=O)OC)cc2C)n1
A: > 100 µM

Q: State the recorded TGI for this entry: CCOC(=O)C1SC(=Nc2ccc(Cl)cc2C)N=C1C (stereo unspecified)
A: 65.2 µM

----------
Record form. Attribute: TGI. Fill in for each entry.
Test system: LXFL 529 NSCLC
methodSummary: NCI tumour cell line growth inhibition, 48 h
Where a SMILES comes first, the peptide text is derived from it. [ ]: non-standard residue; d: D form. 2Nal = N[CH](Cc1ccc2ccccc2c1)C(=O)O

Q: State the recorded TGI for this entry: CN(C)CCC1(C2=CCCC2)CC/C(=C\c2ccccc2Cl)C1=O (stereo not drawn)
A: 23.9 µM

Q: State the recorded TGI for this entry: COc1cc2c(cc1OC)c1c(OC)c(OC)cc3c1c1c2sc(=S)n1CC3
A: > 100 µM

Q: State the recorded TGI for this entry: CCOC(=O)NC(=O)c1cn(CCN2CCNCC2)c(=O)[nH]c1=O
A: > 100 µM

Q: State the recorded TGI for this entry: Cc1cc(C)nc(NS(=O)(=O)c2ccc(NC(=O)c3ccc(Cl)c4c(Nc5ccc(S(=O)(=O)N=C(N)N)cc5)c5ccccc5nc34)cc2)n1
A: > 100 µM

Q: State the recorded TGI for this entry: CC(C)C(NC(=O)C(CCCCN)NC(=O)C(Cc1c[nH]c2ccccc12)NC(=O)C(Cc1ccc(O)cc1)NC(=O)C(CS)NC(=O)C(N)Cc1ccc2ccccc2c1)C(=O)NC(CS)C(=O)NC(C(N)=O)C(C)O (stereo not drawn) (H-[2Nal]CYWKVCT-NH2; configuration not given here)
A: > 100 µM

Q: State the recorded TGI for this entry: CCN(CC)CC(C)(C)C(=O)/C=C/c1ccc(/C=C/C(=O)C(C)(C)CN(CC)CC)cc1
A: 0.417 µM

Q: State the recorded TGI for this entry: Cc1ccc(NC(=O)CC/C(CC(=O)C(C)(C)C)=N\Nc2ccc([N+](=O)[O-])cc2[N+](=O)[O-])cc1C
A: > 100 µM

Q: State the recorded TGI for this entry: CCC[CH2][Sn]([CH2]CCC)([O]C(=O)c1cc(F)cc(F)c1)[O][Sn]([CH2]CCC)([CH2]CCC)[O]C(=O)c1cc(F)cc(F)c1
A: 0.612 µM

Q: State the recorded TGI for this entry: NNC(=O)N/N=C1\C(=O)N(c2nccs2)C(=O)C(=O)C1c1nc2ccccc2s1 (stereo not drawn)
A: > 100 µM

Q: State the recorded TGI for this entry: COc1cc2c(c(OC(C)=O)c1OC(C)=O)-c1ccc(SC)c(=O)cc1C(NC(C)=O)CC2 (stereo not drawn)
A: > 82.3 µM

Q: State the recorded TGI for this entry: O=C(O)CCSC(=S)Nc1cccc(F)c1
A: > 100 µM

Q: State the recorded TGI for this entry: COc1ccc(/C=c2/sc3n(c2=O)NC(c2ccc(Cl)cc2)NN=3)cc1 (stereo not drawn)
A: > 100 µM

Q: State the recorded TGI for this entry: CCO[C@@H]1OC(=O)[C@@](C)(C(C)=O)[C@@H]1C
A: 47.6 µM
